Provenance of the data: patent US11840686B2

tested on: human PKK mRNA; experiment: Dose-dependent antisense inhibition of human PKK in HepaRG cells, 0.19-5.00 uM (Example 5); type: cell-based; details: 5.00 μM, HepaRG cells, electroporation, approximately 16 hours; Table 39
Strand notation (5' to 3'): a small letter for the sugar, then the base; units joined by * are phosphorothioate-linked, units joined directly phosphodiester-linked; [ ] holds rarer units or linkages, { } end groups; capitals alone tell only the bases. e = 2'-O-(2-methoxyethyl) (MOE); [5mC] = 5-methylcytosine; d = 2'-deoxy (DNA)
We begin with a simple list: items and their reported percent inhibition of PKK at 5.00 μM.
Just the number please, in %, no unit attached.

substance	experimental target	units	percent inhibition of PKK at 5.00 μM
546870 (e[5mC]*eT*eG*eT*eA*d[5mC]*d[5mC]*dT*dA*dT*dA*dA*d[5mC]*dT*d[5mC]*eT*eA*eA*e[5mC]*eA; antisense) [compound 546870]	human PKK mRNA	%	95
531231 (eT*eA*eT*e[5mC]*eA*d[5mC]*dT*dG*dT*dA*d[5mC]*dT*dA*dG*dT*eT*eT*e[5mC]*e[5mC]*eT) [compound 531231]	human PKK mRNA	%	97
547632 (antisense eT*e[5mC]*eA*e[5mC]*eT*dG*dT*d[5mC]*d[5mC]*dT*dA*dT*dA*dT*d[5mC]*eA*e[5mC]*eT*e[5mC]*eT) [compound 547632]	human PKK mRNA	%	97

// query Supply percent inhibition of PKK at 5.00 μM value. Item: 546876 (eG*eT*e[5mC]*e[5mC]*eT*dA*dT*dA*dT*d[5mC]*dA*d[5mC]*dT*dG*dT*eA*e[5mC]*e[5mC]*eT*eG; antisense) [compound 546876]
// result 95

====

Attribute: % inhibition
test system: human PKK mRNA; assay: Antisense inhibition of human PKK mRNA in HepaRG cells, 1,000 nM, MOE/deoxy/cEt oligonucleotides (Example 3); type: cell-based; conditions: Table 30; human PKK mRNA, HepaRG cells, 1,000 nM antisense oligonucleotide
Strand notation (5' to 3'): a small letter for the sugar, then the base; units joined by * are phosphorothioate-linked, units joined directly phosphodiester-linked; [ ] holds rarer units or linkages, { } end groups; capitals alone tell only the bases. e = 2'-O-(2-methoxyethyl) (MOE); k = constrained ethyl (cEt); [5mC] = 5-methylcytosine; d = 2'-deoxy (DNA)
Express the reported value numerically, then name its unit.

Worked cases, answers included:
> print(dat)
                                  substance  result
1  548424 (antisense e[5mC]*eA*kG*dT*dA*dT*d[5mC]*dA*d[5mC]*dT*dG*dT*d[5mC]*k[5mC]*kT*eA) [compound 548424]     90%
2  548397 (eG*eG*kA*dG*d[5mC]*dA*dG*dT*dG*d[5mC]*dA*dG*dG*kT*kA*eA; antisense) [compound 548397]      1%
3  548439 (antisense e[5mC]*e[5mC]*kT*dA*dT*dA*dT*d[5mC]*dA*d[5mC]*dT*dG*dT*kA*k[5mC]*e[5mC]) [compound 548439]     46%

// query // fetch % inhibition given entry 548453 (eT*eA*k[5mC]*d[5mC]*dT*dA*dT*dA*dA*d[5mC]*dA*dG*dT*kA*kT*e[5mC]; antisense) [compound 548453]
// result 12%

// query Specify measured % inhibition for 548444 (antisense e[5mC]*eT*kA*dT*dG*dT*d[5mC]*dA*d[5mC]*dT*dG*dT*dA*k[5mC]*k[5mC]*eT) [compound 548444] .
// result 43%

// query Identify measured % inhibition corresponding to 548401 (eG*e[5mC]*k[5mC]*dA*dG*d[5mC]*dT*dA*dT*dG*dG*dG*dA*kA*k[5mC]*eA; antisense) [compound 548401]
// result 71%

// query Entry 548417 (antisense eA*e[5mC]*kT*dG*dT*d[5mC]*d[5mC]*dT*dA*dT*dA*dA*d[5mC]*kT*k[5mC]*eT) [compound 548417] needs its % inhibition filled in; supply it.
// result 24%

// query Read the entry 548413 (antisense e[5mC]*eT*kA*dA*d[5mC]*dA*dG*dT*dA*dT*d[5mC]*dA*d[5mC]*kT*kG*eT) [compound 548413] and write its reported % inhibition.
// result 55%

// query Return value of % inhibition for input 548428 (antisense eT*eA*kA*d[5mC]*dT*dA*dT*dA*dA*d[5mC]*dA*dG*dT*kA*kT*e[5mC]) [compound 548428] , no commentary.
// result 0%

// query Look up % inhibition of 548412 (antisense eT*eA*kA*d[5mC]*dA*dG*dT*dA*dT*d[5mC]*dA*d[5mC]*dT*kG*kT*eA) [compound 548412] and report it.
// result 17%

// query Specify % inhibition for 548384 (e[5mC]*eT*k[5mC]*dA*d[5mC]*d[5mC]*dG*dG*dT*dA*d[5mC]*dT*d[5mC]*kT*kG*e[5mC]; antisense) [compound 548384] and stop.
// result 49%

// query Return value of % inhibition for input 548404 (eG*eA*kG*d[5mC]*d[5mC]*dT*dT*d[5mC]*d[5mC]*dG*d[5mC]*d[5mC]*dT*k[5mC]*kT*e[5mC]; antisense) [compound 548404] , no commentary.
// result 37%

====

tested on: human PKK mRNA; assay: Antisense inhibition of human PKK mRNA in HepaRG cells, 1,000 nM, MOE/deoxy/cEt oligonucleotides (Example 3); type: cell-based; settings: HepaRG cells, electroporation with 1,000 nM antisense oligonucleotide, approx. 24 hours, PKK mRNA by RT-PCR (RTS3454), relative to untreated control cells; Table 25 experiment
Strand notation (5' to 3'): a small letter for the sugar, then the base; units joined by * are phosphorothioate-linked, units joined directly phosphodiester-linked; [ ] holds rarer units or linkages, { } end groups; capitals alone tell only the bases. e = 2'-O-(2-methoxyethyl) (MOE); k = constrained ethyl (cEt); [5mC] = 5-methylcytosine; d = 2'-deoxy (DNA)
Please note: Condition met applies when % inhibition is 9% or greater, and Condition not met applies otherwise.

> print(dat)
                                  substance        label.class
1  548157 (eA*eT*kT*dG*dT*d[5mC]*dA*dG*d[5mC]*d[5mC]*d[5mC]*d[5mC]*dT*kG*kG*eT; antisense) [compound 548157]  Condition not met

// query Identify whether the reported % inhibition of the following substance is 9% or greater: 548224 (e[5mC]*e[5mC]*kA*dT*dA*dG*dA*d[5mC]*d[5mC]*d[5mC]*dA*dG*dA*kA*kT*e[5mC]; antisense) [compound 548224]
// result Condition met

// query In plain terms: is recorded % inhibition at least 9% for 531231 (eT*eA*eT*e[5mC]*eA*d[5mC]*dT*dG*dT*dA*d[5mC]*dT*dA*dG*dT*eT*eT*e[5mC]*e[5mC]*eT) [compound 531231] ?
// result Condition met

// query Could you please find out whether 548156 (eT*e[5mC]*kA*dG*d[5mC]*d[5mC]*d[5mC]*d[5mC]*dT*dG*dG*dT*dT*kA*k[5mC]*eG; antisense) [compound 548156] has % inhibition that meets 9% or exceeds it?
// result Condition not met

// query Assess whether reported % inhibition for 548214 (e[5mC]*eA*kG*dA*d[5mC]*dA*dG*d[5mC]*d[5mC]*d[5mC]*dA*d[5mC]*d[5mC]*kA*kA*e[5mC]; antisense) [compound 548214] sits at 9% or higher.
// result Condition met

====

system: human PKK mRNA; assay: Dose-dependent antisense inhibition of human PKK in HepaRG cells, 0.11-3.00 uM (Example 6); type: cell-based; details: electroporation, 0.11 μM, approx. 16 hours, relative to untreated control cells
Strand notation (5' to 3'): a small letter for the sugar, then the base; units joined by * are phosphorothioate-linked, units joined directly phosphodiester-linked; [ ] holds rarer units or linkages, { } end groups; capitals alone tell only the bases. e = 2'-O-(2-methoxyethyl) (MOE); k = constrained ethyl (cEt); [5mC] = 5-methylcytosine; d = 2'-deoxy (DNA)
Quick list: percent inhibition of PKK mRNA, 0.11 μM per entry.
Respond with the bare value in %.

Examples with their reported percent inhibition of PKK mRNA, 0.11 μM follow.
> print(dat)
                                  substance                                  readout  numeric.value
1  548128 (eA*eT*kT*dG*d[5mC]*d[5mC]*dT*dA*dG*dA*d[5mC]*dT*d[5mC]*kT*kG*eG; antisense) [compound 548128]  percent inhibition of PKK mRNA, 0.11 μM             14
2  547870 (antisense e[5mC]*eT*kA*dA*d[5mC]*d[5mC]*dT*dT*dA*dG*dA*d[5mC]*dA*k[5mC]*kA*eT) [compound 547870]  percent inhibition of PKK mRNA, 0.11 μM              0
3  548521 (antisense e[5mC]*eA*kG*d[5mC]*dT*d[5mC]*d[5mC]*d[5mC]*dT*dT*dA*d[5mC]*dT*kA*kG*eG) [compound 548521]  percent inhibition of PKK mRNA, 0.11 μM             21
4  548070 (e[5mC]*e[5mC]*k[5mC]*dA*dA*d[5mC]*dA*dG*dT*dT*dG*dG*dT*kA*kT*eA; antisense) [compound 548070]  percent inhibition of PKK mRNA, 0.11 μM             26
5  548667 (antisense eT*eG*kG*d[5mC]*dA*dA*dG*d[5mC]*dT*dA*d[5mC]*d[5mC]*dT*kT*k[5mC]*eT) [compound 548667]  percent inhibition of PKK mRNA, 0.11 μM              0
6  548265 (antisense e[5mC]*e[5mC]*kT*d[5mC]*dT*dT*dG*dA*dT*dT*dT*dG*dG*kG*k[5mC]*eA) [compound 548265]  percent inhibition of PKK mRNA, 0.11 μM             47
7  548425 (antisense eA*eA*k[5mC]*dA*dG*dT*dA*dT*d[5mC]*dA*d[5mC]*dT*dG*kT*k[5mC]*e[5mC]) [compound 548425]  percent inhibition of PKK mRNA, 0.11 μM             41
8  548338 (antisense eA*eT*kG*dA*dA*dA*d[5mC]*dT*dG*dT*dG*dG*d[5mC]*kT*k[5mC]*eG) [compound 548338]  percent inhibition of PKK mRNA, 0.11 μM             41

// next item, percent inhibition of PKK mRNA, 0.11 μM requested
// query Find the measured percent inhibition of PKK mRNA, 0.11 μM of 548668 (antisense eG*eG*kG*dA*dG*d[5mC]*dT*dT*dT*d[5mC]*dA*dT*dG*kG*k[5mC]*eT) [compound 548668] and report it.
// result 10
